Value source: PubChem BioAssay AID652010

experiment: DAX1 (NR0B1) inhibitors on StAR promoter, primary screen, cell-based, luminescence, SF-1 (NR5A1), full-length DAX-1 (AID 652010); details: HEK293T StAR-luciferase reporter, SF-1/DAX-1 repression relief; at 6.8 µM; active compounds read high;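 also: 0% = DAX-1 cells with DMSO and 100% = cells lacking DAX-1 with DMSO; higher inhibition means more luminescence from relief of DAX-1 repression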
The campaign covered roughly 370,000 compounds. About 4,100 (1.1%) were called active. Only a selection was taken, and actives are over-represented in it overall.
quantity: inhibition (%)
Could you give me the number in %? Just the number is fine.

>>> print(df.to_string())
                                   compound    quantity  numericreadout
0  O=C(CNS(=O)(=O)c1ccccc1F)N1CCN(c2ccccn2)CC1  inhibition           -0.44
1  CCOC(=O)c1c(NC(=S)SC)sc(C(=O)N2CCc3ccccc3C2)c1C  inhibition            0.68

Let us examine a further case.
Field inhibition (entry O=C(NCC1CCCO1)c1ccc(S(=O)(=O)Nc2ccc(F)cc2)cc1 (stereo not drawn) ) reads 0.67
